# target.or.test.system: UniProt O35433
# Sequence (O35433 whole entry): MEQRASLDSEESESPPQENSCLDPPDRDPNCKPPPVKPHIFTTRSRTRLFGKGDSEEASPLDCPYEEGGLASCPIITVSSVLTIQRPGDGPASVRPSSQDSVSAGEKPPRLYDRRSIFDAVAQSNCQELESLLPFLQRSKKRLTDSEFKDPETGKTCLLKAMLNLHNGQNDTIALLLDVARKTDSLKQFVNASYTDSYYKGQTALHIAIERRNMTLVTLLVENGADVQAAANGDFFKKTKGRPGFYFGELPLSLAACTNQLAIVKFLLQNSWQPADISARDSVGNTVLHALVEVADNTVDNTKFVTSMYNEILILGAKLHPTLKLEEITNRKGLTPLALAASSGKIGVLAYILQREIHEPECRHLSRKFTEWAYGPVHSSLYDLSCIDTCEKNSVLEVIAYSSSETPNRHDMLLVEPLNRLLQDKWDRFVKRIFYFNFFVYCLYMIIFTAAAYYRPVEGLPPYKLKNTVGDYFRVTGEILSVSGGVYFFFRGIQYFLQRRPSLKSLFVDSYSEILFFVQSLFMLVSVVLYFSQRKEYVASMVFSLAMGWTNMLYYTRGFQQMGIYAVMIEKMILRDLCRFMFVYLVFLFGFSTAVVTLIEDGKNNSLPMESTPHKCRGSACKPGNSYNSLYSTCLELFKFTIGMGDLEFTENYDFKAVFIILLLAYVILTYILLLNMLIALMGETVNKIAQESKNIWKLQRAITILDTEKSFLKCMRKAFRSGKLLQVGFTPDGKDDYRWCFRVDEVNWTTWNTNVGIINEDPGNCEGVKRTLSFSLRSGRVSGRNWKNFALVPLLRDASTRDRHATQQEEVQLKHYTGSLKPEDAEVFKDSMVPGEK
# assay.procedure: In vitro antagonistic activity on VR1 receptor in [Ca2+] influx assay in rat dorsal root ganglion
# Format: functional, tissue-based
Measured IC50 of individual entries
experimental.readout: IC50 (nM)

>  <record.smiles>
CC(C)(C)c1ccc(NC(=O)c2ccc(-c3ccccn3)cc2)cc1

>  <experimental.readout>
IC50

>  <comparator>
=

>  <observed.result>
31

$$$$
>  <record.smiles>
CC(C)(C)c1ccc(NC(=O)c2ccc(-c3cccnc3)cc2)cc1

>  <experimental.readout>
IC50

>  <comparator>
=

>  <observed.result>
1300

$$$$
>  <record.smiles>
CC(C)(C)c1ccc(NC(=O)c2ccc(-c3ncccc3C(F)(F)F)cc2)cc1

>  <experimental.readout>
IC50

>  <comparator>
=

>  <observed.result>
140

$$$$
>  <record.smiles>
CC(C)(C)c1ccc(NC(=O)c2ccc(-c3cnccn3)cc2)cc1

>  <experimental.readout>
IC50

>  <comparator>
=

>  <observed.result>
1000

$$$$
>  <record.smiles>
CC(C)(C)c1ccc(NC(=O)c2ccc(-c3ccccc3)cc2)cc1

>  <experimental.readout>
IC50

>  <comparator>
=

>  <observed.result>
3600

$$$$
>  <record.smiles>
O=C(Nc1ccccc1)c1ccc(-c2ccccn2)cc1

>  <experimental.readout>
IC50

>  <comparator>
>

>  <observed.result>
10000

$$$$
